B1: CPEB3 Ribozyme (parent)
chain: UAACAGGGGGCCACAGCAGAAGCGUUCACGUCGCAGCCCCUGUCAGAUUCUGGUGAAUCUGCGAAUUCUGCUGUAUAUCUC

variants of: B1; experiment: self-cleavage, relative activity (ratio to wild type); higher = more cleavage; in vitro, sequencing
quantity_kind: self-cleavage
Could you keep your reply to the number by itself?

Below: 3 variants and their reported self-cleavage.
C34G U67C
0.13
U41C C68G
0.39
A3U A45U
0.73

IN: // lookup self-cleavage for U31G A35U
OUT: 0.36

IN: What value of measured self-cleavage is listed for U41C G70A ?
OUT: 0.62

IN: Which value of self-cleavage has been reported for A3C A56U in the records?
OUT: 0.65

IN: # get_value(readout='self-cleavage', item= G55U U78C )
OUT: 0.75

IN: Recorded self-cleavage for A13U U60A , please?
OUT: 0.73

IN: So what's the measured self-cleavage for this one? C23G A28G
OUT: 0.17

IN: For A20C A21U , what is its reported self-cleavage?
OUT: 0.2

IN: Any idea what its self-cleavage is? The variant is G33C U69C
OUT: 0.13

IN: Bench note: what self-cleavage did A20C A21G show?
OUT: 0.49

IN: Fill blank: measured self-cleavage of the variant `C17A` is ____.
OUT: 0.32

IN: Looking for the measured self-cleavage of A20G C81U , can you help?
OUT: 1.09

IN: May I ask what self-cleavage has been recorded for C4U A64U ?
OUT: 0.7

IN: I would be grateful if you could share the reported self-cleavage for G6U U41A .
OUT: 0.35
